System under test: Hydroxycarboxylic acid receptor 2 (Homo sapiens)
Sequence (Q8TDS4 whole entry): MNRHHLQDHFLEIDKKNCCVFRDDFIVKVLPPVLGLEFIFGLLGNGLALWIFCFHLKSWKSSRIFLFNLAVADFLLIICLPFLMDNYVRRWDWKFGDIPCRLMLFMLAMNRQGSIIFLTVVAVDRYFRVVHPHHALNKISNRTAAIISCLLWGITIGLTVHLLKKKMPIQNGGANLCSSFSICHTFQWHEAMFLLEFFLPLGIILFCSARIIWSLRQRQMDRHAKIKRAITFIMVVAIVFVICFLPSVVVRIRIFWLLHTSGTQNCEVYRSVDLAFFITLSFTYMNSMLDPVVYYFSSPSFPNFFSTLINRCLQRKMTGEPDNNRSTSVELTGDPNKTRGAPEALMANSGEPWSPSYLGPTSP
Assay procedure: Agonist activity at human HM74A transfected in CHO-K1 cells for 4 hrs by [35S]-GTPgammaS binding assay
Format: functional, cell-based
Below, each entry is listed with its recorded Efficacy.

Compound | System under test | Assay value
O=c1c2[nH]c(Cl)nc2n(CC(F)(F)F)c(=O)n1CCCC(F)(F)F | Hydroxycarboxylic acid receptor 2 (Homo sapiens) | > 30%

Tell me measured Efficacy for CCCCCCn1c(=O)n(C)c(=O)c2[nH]c(Cl)nc21 please.
> 30%

---

System under test: Hydroxycarboxylic acid receptor 2 (Homo sapiens)
Assay procedure: Agonist activity at human HM74A transfected in CHO-K1 cells for 4 hrs by [35S]-GTPgammaS binding assay
pEC50: −log10 of the molar value.
Reported endpoint: pEC50

Study these solved cases before continuing.
Compound | System under test | Reported endpoint | Assay value
CCCCCCCCCCn1c(=O)[nH]c(=O)c2[nH]c(Cl)nc21 | Hydroxycarboxylic acid receptor 2 (Homo sapiens) | pEC50 | > 4.90
C=CCCCn1c(=O)[nH]c(=O)c2[nH]c(Cl)nc21 | Hydroxycarboxylic acid receptor 2 (Homo sapiens) | pEC50 | > 4.90
CC(C)CCn1c(=O)[nH]c(=O)c2[nH]c(Cl)nc21 | Hydroxycarboxylic acid receptor 2 (Homo sapiens) | pEC50 | > 4.90
O=c1[nH]c(=O)n(CCC2CC2)c2nc(Cl)[nH]c12 | Hydroxycarboxylic acid receptor 2 (Homo sapiens) | pEC50 | > 4.90
CCn1c(=O)n(C)c(=O)c2[nH]c(Cl)nc21 | Hydroxycarboxylic acid receptor 2 (Homo sapiens) | pEC50 | > 4.90
CCCCCn1c(=O)[nH]c(=O)c2[nH]c(Cl)nc21 | Hydroxycarboxylic acid receptor 2 (Homo sapiens) | pEC50 | > 4.90
CCCCCn1c(=O)n(C)c(=O)c2[nH]c(Cl)nc21 | Hydroxycarboxylic acid receptor 2 (Homo sapiens) | pEC50 | > 4.90
CCC(C)CCn1c(=O)[nH]c(=O)c2[nH]c(Cl)nc21 (racemic) | Hydroxycarboxylic acid receptor 2 (Homo sapiens) | pEC50 | > 4.90

Report its pEC50 with Hydroxycarboxylic acid receptor 2 (Homo sapiens) as the test system: O=c1[nH]c(=O)n(CC(F)(F)F)c2nc(Cl)[nH]c12
> 4.90

Report its pEC50 with Hydroxycarboxylic acid receptor 2 (Homo sapiens) as the test system: CC(C)(C#N)CCCCn1c(=O)[nH]c(=O)c2[nH]c(Cl)nc21
> 4.90

Report its pEC50 with Hydroxycarboxylic acid receptor 2 (Homo sapiens) as the test system: CCCCn1c(=O)n(CC#N)c(=O)c2[nH]c(Cl)nc21
> 4.90
